System: HS 578T breast
measurement notes: NCI-60 one-dose screen, 48 h (100 = growth as untreated, 0 = no growth, -100 = all killed)
stated conditions: 10 µM unless noted
Description: Growth inhibition of the HS 578T human tumor cell line is measured as a screen for anti-cancer activity. Cells are grown in 96 well plates and exposed to the test compound for 48 hours. Compounds are tested at a single concentration, which is 10^-5 M for most compounds. The reported endpoint is percent growth (GI% or GIPRCNT), where numbers from 0 - 100% represent growth inhibition, and numbers from -100% - 0 represent cell death. For example, a value of 40 represents 60% growth inhibition. […]
Compounds without any hit were thinned out: in the full panel of roughly 83,000, 20% have a hit.
growth by entry:
Give the value, in units of %, as a plain number.

Worked cases, answers included:
molecule	growth / %
N/C(=N\O)c1ccncc1	110
CCOC(=O)c1ccc2n1CCCc1cnc(NC(C)=O)nc1-2	99.6
C/C(CCC(=O)O)=N/Nc1ccc([N+](=O)[O-])cc1	92.9

(Q) Record request: growth value, item O=C1CCNC1
(A) 114

(Q) What about CC(C)OCC1CO1 (stereo not drawn) ?
(A) 104

(Q) What about CCOC(=O)C1C(=O)C(=O)N(C(C)C)C1C(=O)OCC (stereo not drawn) ?
(A) 96.5

(Q) What about CC(=O)/C(=C\c1c(-c2ccccc2)[nH]c2ccccc12)S(=O)(=O)c1ccccc1 ?
(A) 8.54

(Q) What about O=S(=O)(O)c1ccc2c(c1)Sc1cc(S(=O)(=O)O)ccc1O2 ?
(A) 110

(Q) What about N=C(N)c1ccc(-c2ccc(-c3ccc(Cl)cc3)s2)s1 ?
(A) -21.7

(Q) What about Nc1cc(N)c2nc(-c3ccccc3)c(NCCc3ccc(Cl)c(Cl)c3)nc2c1 ?
(A) -22.7

(Q) What about COc1ccc(C(=O)CN2C(=O)NC(c3ccccc3)(c3ccccc3)C2=O)cc1 ?
(A) 89.3

(Q) What about COc1ccc(-c2nc(SCC(C)C)nc(Nc3ccc(C(=O)O)cc3)c2C#N)cc1 ?
(A) 99.1

(Q) What about CC(=O)Nc1nc(C)c(C(=O)N/N=C/N2CCOCC2)s1 ?
(A) 97.6

(Q) What about Cc1nc2ccccc2c(=O)n1-c1cccc(OCc2cn(-c3cccc(O)c3)nn2)c1 ?
(A) 87.4

----------
growth by entry:
System: SF-268 CNS
measurement notes: NCI-60 one-dose screen, 48 h (100 = growth as untreated, 0 = no growth, -100 = all killed)
stated conditions: 10 µM unless noted
About 83,000 compounds went through this panel and 20% of them were active in at least one assay; those are over-represented in the sample as a whole.
Give the value, in units of %, as a plain number.

molecule	system under test	display unit	val
C[n+]1c2ccccc2c(Nc2ccc(NS(=O)(=O)CCCCN=C(N)N)cc2)c2ccc(N)cc21	SF-268 CNS	%	39.7
O=C(CCl)c1ccc2c(c1)CCCC2	SF-268 CNS	%	104
O=C(O)c1occ(Cl)c1Cl	SF-268 CNS	%	113

(Q) Record request: growth value, item COc1cc(/C=C/C(=O)c2ccc(F)cc2)ccc1OCCCCOc1cc2c(cc1OC)C(=O)N1CCCC1C=N2 (stereo not drawn)
(A) -12.4

----------
System: A549/ATCC NSCLC
measurement notes: NCI-60 one-dose screen, 48 h (100 = growth as untreated, 0 = no growth, -100 = all killed)
stated conditions: 10 µM unless noted
Method: Growth inhibition of the A549/ATCC human Non-Small Cell Lung tumor cell line is measured as a screen for anti-cancer activity. Cells are grown in 96 well plates and exposed to the test compound for 48 hours. Compounds are tested at a single concentration, which is 10^-5 M for most compounds. The reported endpoint is percent growth (GI% or GIPRCNT), where numbers from 0 - 100% represent growth inhibition, and numbers from -100% - 0 represent cell death. […]
The panel holds about 83,000 compounds, 20% with a hit somewhere; the sample as a whole holds those more often.
Please mark Met if the recorded growth is equal to or greater than 70%, and Not met if it falls below.

# example entries with known answers
compound	class assignment
CC(=O)c1cc(Nc2cc(C)nc(N)n2)cc(C(C)=O)c1	Met
O=C(C(=O)N1CCOCC1)c1ccc(O[C@H]2O[C@H](CO)[C@@H](O)[C@H](O)[C@@H]2O)cc1	Met
COC(=O)c1ccc2[nH]c(O)c(C(=Nc3ccc(N(C)C(=O)CN4CCN(C)CC4)cc3)c3ccc4c(c3)OCO4)c2c1	Not met
COc1cc2ncnc(Nc3ccc4c(cnn4C(=O)Nc4ccccc4)c3)c2cc1OC	Met

Attention now turns to another entry.
(Q) Identify whether the reported growth of the following compound is 70% or greater: COc1cc(NC(C)CCCN)c2nc(C)ccc2c1OC (stereo not given)
(A) Met

----------
System: CAKI-1 renal
measurement notes: NCI-60 one-dose screen, 48 h (100 = growth as untreated, 0 = no growth, -100 = all killed)
stated conditions: 10 µM unless noted
The panel holds about 83,000 compounds, 20% with a hit somewhere; the sample as a whole holds those more often.
growth by entry:
Give the value, in units of %, as a plain number.

(Q) What is its growth for CAKI-1 renal? Entry: O=C(/C=C\c1ccc(NCc2ccc(C(=O)O)cc2)cc1)CCl
(A) 105

----------
System: M14 melanoma
measurement notes: NCI-60 one-dose screen, 48 h (100 = growth as untreated, 0 = no growth, -100 = all killed)
stated conditions: 10 µM unless noted
About 83,000 compounds went through this panel and 20% of them were active in at least one assay; those are over-represented in the sample as a whole.
assay endpoint: growth (%)
Give the value, in units of %, as a plain number.

(Q) Record request: growth value, item Oc1ccc([S+](c2ccc(O)cc2)c2ccc(O)cc2)cc1
(A) 105

(Q) What about CC[C@H](Nc1ncnc2nc[nH]c12)c1nc2cccc(NCc3ccc(C(=O)NO)nc3)c2c(=O)n1-c1ccccc1 ?
(A) 68.5

----------
Tested on: ACHN renal
measurement notes: NCI-60 one-dose screen, 48 h
stated conditions: 10 µM unless noted
Compounds without any hit were thinned out: in the full panel of roughly 83,000, 20% have a hit. The source made the active and inactive calls. How the source made its calls: active means growth percent below 10; inactive means the rest.
Respond only with the outcome that fits, drawn from 1 for active, -1 for inactive

molecule	system under test	class assignment
CCCCCCCCCCCCCCCC[n+]1cccc(C#N)c1	ACHN renal	-1

(Q) Please indicate how the test categorized Nc1nc2cc(O)ccc2n2cc3c(F)cccc3c12 .
(A) -1

(Q) What about CCCCCCCCCCCCCCCCNC(=O)Nc1ccc(C)c(NC(=O)NCCCCCCCCCCCCCCCC)c1 ?
(A) -1

(Q) What about C=CCC(CCC(CC=C)C(=O)OCC)C(=O)OCC (configuration not stated) ?
(A) -1

(Q) What about Cc1ccccc1-n1c(C)nc2cc(NC(=O)c3ccc(Cl)cc3)ccc2c1=O ?
(A) -1

(Q) What about CC(=O)Nc1nc(C)c(C(=O)N/N=C/c2cccs2)s1 ?
(A) -1

----------
Tested on: SR leukemia
measurement notes: NCI-60 one-dose screen, 48 h
stated conditions: 10 µM unless noted
The panel holds about 83,000 compounds, 20% with a hit somewhere; the sample as a whole holds those more often. Calls of active or inactive are those of the source. How the source made its calls: active means growth percent below 10; inactive means the rest.
Respond only with the outcome that fits, drawn from active, inactive

compound	class assignment
Cc1ccc(C(C)C)c(OCc2ccc(C(=O)N/N=C/c3cccc(O)c3O)cc2)c1	active
CCS(=O)(=O)OCCO[C@H]1Cc2cc3ccc(=O)oc3cc2OC1(C)C	inactive
O=c1[nH]c(=S)[nH]c(O)c1/C=C1\C=Nc2ccccc21	active
COC(=O)C(Cc1cnc[nH]1)N1CC(=O)N2[C@@H](c3ccccc3)SC[C@H]2C1=O (some centres not stated)	inactive
CCn1cnc(C[C@H](NC(=O)[C@@H](NC(=O)Nc2cc(C(F)(F)F)cc(C(F)(F)F)c2)C(C)(C)C)C(=O)OC)c1	active
CC1(C)NCCC[C@]2(C)[C@H]3CC=C4[C@@H]5C[C@](C)(COC(=O)c6ccccc6C(=O)O)CC[C@]5(C)CC[C@@]4(C)[C@]3(C)CC[C@@H]12	inactive

(Q) Please indicate how the test categorized CC(C)OC(=O)c1ccc2n1CCCc1cnc(Nc3ccccc3)nc1-2 .
(A) inactive

----------
Test system: OVCAR-3 ovarian
measurement notes: NCI-60 one-dose screen, 48 h (100 = growth as untreated, 0 = no growth, -100 = all killed)
stated conditions: 10 µM unless noted
Compounds without any hit were thinned out: in the full panel of roughly 83,000, 20% have a hit.
growth by entry:
Give the value, in units of %, as a plain number.

compound	system under test	growth (%)
C=CC1CN2CCC1CC2C(O)c1ccnc2ccc(OC)cc12 (stereo not given)	OVCAR-3 ovarian	105

(Q) Record request: growth value, item O=C(Nc1cccc(Cn2c(=O)[nH]c3ccc(Oc4ncccn4)cc3c2=O)c1)c1cc(Cl)cc(Cl)c1
(A) 81.2

(Q) What about COc1ccc(/C=C2\SC(=O)N(Cc3cc(=O)oc4ccc(OC)cc34)C2=O)cc1 ?
(A) 84.6

(Q) What about CC(C)(C)C(=O)CCCCCCCC/C=C/CCCC(O)c1ccco1 (stereo not given) ?
(A) 126

(Q) What about Nc1ccc(N=Nc2ccccc2)c2cc(S(=O)(=O)O)ccc12 ?
(A) 108
